Measured Tm, listed per entry for reference.
ASSAY_OVERVIEW: melting temperature; melt of duplexes
CONDITION_PARAMETERS: sodium 0.0675 M; strand 1 µM
PROPERTY: Tm (°C)

SUBSTANCE: CGACGTGCTCGATGTGCTG+CAGCACATACAGCACGTCG (((((((((..((((((((+))))))))..)))))))))
PROPERTY: Tm
REPORTED: 51.8
--
SUBSTANCE: CGACGTGCTGGATGTGCTG+CAGCACATCCAGCACGTCG (((((((((((((((((((+)))))))))))))))))))
PROPERTY: Tm
REPORTED: 65.5
--
SUBSTANCE: CGACGTGCAAAATGTGCTG+CAGCACATGTCGCACGTCG ((((((((.(.((((((((+)))))))).).))))))))
PROPERTY: Tm
REPORTED: 53.3
--
SUBSTANCE: CGACGTGCGCTATGTGCTG+CAGCACATTTTGCACGTCG ((((((((...((((((((+))))))))...))))))))
PROPERTY: Tm
REPORTED: 48.3
